B1: MLL5 (parent)
chain: HDDGYMICCDKCSVWQHIDCMGID

- Variants of: B1
- test_description: protein stability index of a GFP-peptide fusion (GPS, HEK-293T) (PSI 1-6); higher = more stable;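 also: lentivirally expressed fusions sorted by FACS into six bins by GFP to DsRed ratio, PSI derived from sequencing read proportions per bin multiplied by bin number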
- experimental_parameters: c terminus: a fixed tail appended
Rule: protein stability index of 3 or more gives True; anything lower gives False.

Item M21G with protein stability index of 3 or above? False

Item K11A with protein stability index of 3 or above? False

Item V14Q with protein stability index of 3 or above? False

Item Q16G with protein stability index of 3 or above? False

Item I23T with protein stability index of 3 or above? False
